pKd values by entry
Target: T1, full-length human GPC3 (human, UniProt P51654 25-554)
T1 construct: On CHO (DXB11) or SK-HEP-1 (SK-03) transfectants; also used here for the GPC3 on the hepatoma lines HepG2 and HuH-7; also called human glypican 3
T1 sequence (P51654 25-554 limits assumed): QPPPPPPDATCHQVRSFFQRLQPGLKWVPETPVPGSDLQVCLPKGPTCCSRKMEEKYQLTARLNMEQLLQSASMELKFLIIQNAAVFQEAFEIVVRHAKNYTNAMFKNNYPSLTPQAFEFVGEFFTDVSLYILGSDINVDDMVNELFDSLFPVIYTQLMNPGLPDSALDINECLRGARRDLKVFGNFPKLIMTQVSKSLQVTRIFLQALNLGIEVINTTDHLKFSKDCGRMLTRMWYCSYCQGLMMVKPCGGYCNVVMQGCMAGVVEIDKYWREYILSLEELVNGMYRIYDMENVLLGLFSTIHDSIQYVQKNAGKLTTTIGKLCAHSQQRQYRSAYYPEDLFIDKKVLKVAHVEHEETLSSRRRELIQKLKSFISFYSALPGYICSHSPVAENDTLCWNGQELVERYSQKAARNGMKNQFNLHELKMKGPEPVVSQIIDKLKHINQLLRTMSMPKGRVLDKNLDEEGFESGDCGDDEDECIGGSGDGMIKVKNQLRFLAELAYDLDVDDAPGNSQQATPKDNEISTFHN
Assay: BIACORE; the form of GPC3 used is not given
pKd: −log10 of the molar value.
property name: pKd

[[record]]
binder = "M10D2 (antibody, V domains shown, Mouse monoclonal from hybridoma) VH: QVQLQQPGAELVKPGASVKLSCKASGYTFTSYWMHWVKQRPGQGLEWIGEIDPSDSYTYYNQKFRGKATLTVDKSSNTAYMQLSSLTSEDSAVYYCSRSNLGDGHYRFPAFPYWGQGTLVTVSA VL: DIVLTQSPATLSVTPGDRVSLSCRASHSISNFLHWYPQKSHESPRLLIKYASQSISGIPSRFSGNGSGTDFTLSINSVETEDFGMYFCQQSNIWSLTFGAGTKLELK"
assay_result = 8.33

[[record]]
binder = "L9G11 (antibody, V domains shown, Mouse monoclonal from hybridoma) VH: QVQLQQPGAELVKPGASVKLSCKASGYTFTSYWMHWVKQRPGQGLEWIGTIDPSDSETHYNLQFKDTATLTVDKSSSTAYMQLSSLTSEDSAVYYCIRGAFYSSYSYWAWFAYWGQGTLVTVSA VL: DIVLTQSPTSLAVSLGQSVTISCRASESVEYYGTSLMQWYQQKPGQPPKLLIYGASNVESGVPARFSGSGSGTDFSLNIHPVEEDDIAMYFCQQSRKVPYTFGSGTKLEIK"
assay_result = 7.97

[[record]]
binder = "M18D4 (antibody, human IgG1, kappa, V domains shown, Mouse monoclonal from hybridoma) VH: EVQLQQSGTVLARPGASVKMSCKASGYTFTGYWMRWVKQRPGQGLEWIGAIYPGNSDTTYNQKFKGKAKLTAVTSVSTAYMELSSLTNEDSAVYYCSRSGDLTGGFAYWGQGTLVTVST VL: DIVMTQAAFSNPVTLGTSTSISCRSSKSLLHSNGITYLYWYLQKPGQSPQLLIYQMSNLASGVPDRFSSSGSGTDFTLRISRVEAEDVGVYYCAQNLELPYTFGSGTKLEIKR"
assay_result = 8.21

[[record]]
binder = "M11F1 (antibody, V domains shown, Mouse monoclonal from hybridoma) VH: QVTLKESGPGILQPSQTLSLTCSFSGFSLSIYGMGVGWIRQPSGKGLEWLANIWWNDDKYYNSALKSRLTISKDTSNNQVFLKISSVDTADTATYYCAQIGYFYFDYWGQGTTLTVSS VL: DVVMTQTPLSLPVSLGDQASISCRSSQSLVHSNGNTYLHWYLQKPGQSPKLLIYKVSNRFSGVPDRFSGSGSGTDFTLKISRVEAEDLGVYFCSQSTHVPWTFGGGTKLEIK"
assay_result = 9.70

